The following binders are listed with their measured X Geo Mean values.
Biological target: T1, mouse uPAR on the surface of NCTC L929 cells (mouse, UniProt P35456 24-298)
T1 construct: whole, on cells; also called cell surface mouse uPAR
T1 sequence (looked up): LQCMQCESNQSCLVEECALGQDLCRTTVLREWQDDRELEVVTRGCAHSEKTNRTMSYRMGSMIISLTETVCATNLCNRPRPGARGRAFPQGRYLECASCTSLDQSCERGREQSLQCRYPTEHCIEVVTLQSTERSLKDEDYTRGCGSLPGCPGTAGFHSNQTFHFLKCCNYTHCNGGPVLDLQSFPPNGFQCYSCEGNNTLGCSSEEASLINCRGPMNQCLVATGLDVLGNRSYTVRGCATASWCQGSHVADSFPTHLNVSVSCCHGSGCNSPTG
Test: FACS, NCTC L929 mouse cells, mAb 6.25 µg/ml
Simply state the number, no unit and no words.

# binder, X Geo Mean
records = [
    ("fully human monoclonal antibody 4.18.1 (ATCC Accession Number PTA-7476) (antibody, V domains shown) VH: EVQLVESGGGLIQPGGSLRLSCAASGFTVRNNYMNWVRQAPGKGLEWVSVIYTGGSTYYADSVKGRFTISRDNSRNTLYLQMNSLRAEDTAVYYCAREGAVAGFDYWGQGTLVTVSL VL: EIVMTQFPATLSMSPGERATLSCRASQSVSSSLAWYQQTPGQAPRLLIYGASTRSTGFPARFSGIGSGTEFTLTISSLQSEDFAVYYCQQYGNWPLTFGQGTRLEIK", 8.18),
]

Inquiry: Please supply the value of reported X Geo Mean for the item anti-uPAR monoclonal antibody 1.41.1 (antibody, V domains shown) VH: QVQLVESGGGVVQPGRSLRLSCAAPGFTFSSYGMHWVRQAPGKGLEWVAVIWYDGSQKYYADSVKGRFTISRDNSKNTLYLQMNSLRAEDTAVYYCARGMTYYYYYGMDVWGQGTTVTVSS VL: EIVMTQSPAILSVSPGERATLSCRASQSVSSKLDWYQQKPGQAPRLLIYGASTRATGIPARFSGSGSGTEFTLTISSLQSEDFAVYYCQQYNNWPRTFGQGTKVEIK
Reply text: 9.59

Inquiry: Please supply the value of reported X Geo Mean for the item anti-uPAR monoclonal antibody 1.61.1 (antibody, V domains shown) VH: EVQLVESGGGLVQPGGSLRLSCAASGFTFSSYDMHWVRQATGKGLEWVSAIGTAGDTYYPGSVKGRFTISRENAKNSLYLQMNSLRAGDTAVYYCAREGDYSNYFTRVRGVTYGMDVWGQGTTVTVSS VL: DIQMTQSPSSLSASVGDRVTITCRASQGISKYLAWFQQKPGKAPKSLIYGASSLQSGVPSKFSGSGSGTDFTLTISSLQPEDFATYYCQQYNSYPLTFGGGTKVEIK
Reply text: 9.7
